# Tested on: T47D
# Procedure Details: NCI tumour cell line growth inhibition, 48 h
Calls of active or inactive are those of the source. No stated cut-off is given here; in the data, active = GI50 up to about 1.1 µM and inactive = higher.
API: response.call in yes (active), no (inactive)

Which outcome was assigned to "C/C(=N/NC(=S)N1CCCCC1)c1ccccc1O" in this test? no

How about "COc1cc(/C=C2\CC/C(=C\c3cc(OC)c(O)c(OC)c3)C2=O)cc(OC)c1O" ? no

How about "C[C@@H]1CC[C@H]2[C@H]1[C@H]1[C@@H](CC[C@]2(C)N=C=S)C1(C)C" ? no

How about CC12CC(c3ccccc3O1)C(C(=O)Nc1ccc(Cl)cc1Cl)C(=O)N2 (stereo not drawn) ? no

How about "C=C(C)[C@@]1(O[Si](C)(C)C)CCCC[C@@H]1CC(Sc1ccccc1)Sc1ccccc1" ? no

How about "CC(=O)O[C@H]1C(=O)[C@@]2(C)[C@H]([C@H](OC(=O)c3ccc(F)cc3)[C@]3(O)C[C@H](OC(=O)[C@H](O)[C@@H](NC(=O)c4ccccc4)c4ccccc4)C(C)=C1C3(C)C)[C@]1(OC(C)=O)CO[C@@H]1C[C@@H]2O" ? yes

How about "CC(=O)Oc1ccc(-c2cc3ccccc3oc2=O)cc1OC(C)=O" ? no

How about CC(C)CC(NC=O)C(=O)NC(Cc1ccccc1)NC(=O)CNC(=O)C(C)NC(=O)C(N)Cc1ccc(O)cc1 (stereo not drawn) ? no

* * *

Reported GI50 values for the following compounds.
# System: SN12C
# Procedure Details: NCI tumour cell line growth inhibition, 48 h
Calls of active or inactive are those of the source. Cut-off read from the data, not from the text of the source: active = GI50 up to about 1.1 µM and inactive = higher.

Compound	Study System	Value Type	Reported Measurement
Cc1ccc(/C=C2\CCCCCC2=O)cc1	SN12C	GI50	> 100 µM (inactive)

Kindly state the measured GI50 obtained for "O=C(N1CCN(c2ccccc2)CC1)N(C(=O)C1(c2ccc(Cl)cc2)CCCC1)S(=O)(=O)c1ccccc1" with SN12C. 28.3 µM (inactive)

How about "S=C(N/N=C/c1ccco1)NC12CC3CC(CC(C3)C1)C2" ? > 100 µM (inactive)

How about "O=C1C(c2ccc([N+](=O)[O-])cc2)=[N+]([O-])c2ccccc21" ? 24.5 µM (inactive)

How about CC(O)C(CO)NC(=O)C1CSSCC(NC(=O)C(N)Cc2ccccc2)C(=O)NC(Cc2ccccc2)C(=O)NC(Cc2c[nH]c3ccccc23)C(=O)NC(CCCCN)C(=O)NC(C(C)O)C(=O)N1 (centres undefined) ? > 100 µM (inactive)

How about "CC(=O)N1c2ccccc2[C@H]2CCc3c([nH]c4ccccc34)[C@H]21" ? 13.7 µM (inactive)

How about "ClC1(c2ccccc2)c2ccc(Br)cc2-c2cc(Br)ccc21" ? 18.6 µM (inactive)

How about "O=c1c2ccccc2nc(-c2ccccc2)n1NC(=S)Nc1ccc(Cl)cc1" ? > 100 µM (inactive)

How about "C/C=C(\CCOS(=O)(=O)c1ccc(C)cc1)[Si](C)(C)C" ? > 100 µM (inactive)

* * *

# Test system: RXF 631
# Procedure Details: NCI tumour cell line growth inhibition, 48 h
Active and inactive are the calls of the source. Cut-off read from the data, not from the text of the source: active = GI50 up to about 1.1 µM and inactive = higher.
Value Type: GI50

Some solved entries appear below for comparison.
>>> print(df.to_string())
                                   compound  reported_measurement
0  CC(C)C/C(CC(=O)CCC(=O)Nc1ccccc1[N+](=O)[O-])=N\NC(=O)c1cc2ccccc2cc1O    31.2 µM (inactive)
1  COC(=O)C(=O)C(C#N)c1c(Cl)cccc1Cl (stereo unspecified)   > 100 µM (inactive)

The record that follows has no GI50 shown yet.
GET /values?readout=GI50&item= O=[N+]([O-])c1ccc2nc(/C(=N/Nc3ccccc3)C(O)c3ccc(Cl)cc3Cl)c(O)nc2c1 (stereo unspecified) 50.4 µM (inactive)

Entry source: ChEMBL document CHEMBL1201862
